molecular target: Tyrosine-protein kinase BTK (Homo sapiens); assay: Inhibition of human recombinant full length BTK expressed in baculovirus in Sf9 insect cells using Poly (4:1 Glu, Tyr) as substrate incubated for 1 hr by ADP-Glo assay
For each entry below, report its IC50 value.
Give bare numbers, in nM.

In the examples that follow, each entry is paired with its recorded IC50.
compound=C=CC(=O)Nc1cccc(Nc2nc(Nc3ccc(OCCCSC(=S)NCc4cccnc4)cc3)ncc2F)c1 unit_of_measure=nM recorded_measurement=2.39
compound=C=CC(=O)Nc1cccc(Nc2nc(Nc3ccc(OCCSC(=S)N4CCN(C(=O)OC(C)(C)C)CC4)cc3)ncc2F)c1 unit_of_measure=nM recorded_measurement=264

# batch: return IC50 for each of the 3 compounds below
1. C=CC(=O)Nc1cccc(Nc2nc(Nc3ccc(OCCCCSC(=S)NCc4cccnc4)cc3)ncc2F)c1
2. C=CC(=O)Nc1cccc(Nc2nc(Nc3ccc(OCCSC(=S)NCc4cccc(F)c4)cc3)ncc2F)c1
3. C=CC(=O)Nc1cccc(Nc2nc(Nc3ccc(OCCSC(=S)NCc4cc(OC)c(OC)c(OC)c4)cc3)ncc2F)c1

Data returned:
[16.5, 6.9, 48.6]

====

molecular target: Tyrosine-protein kinase BTK (Homo sapiens); test: Inhibition of human recombinant full length BTK expressed in baculovirus in Sf9 insect cells using Poly (4:1 Glu, Tyr) as substrate incubated for 1 hr by ADP-Glo assay
IC50 strictly less than 60 nM = 1 (yes). Otherwise 0 (no).

chem_smiles=C=CC(=O)Nc1cccc(Nc2nc(Nc3ccc(NC(=O)CSC(=S)NCc4cccnc4)cc3)ncc2F)c1 answer_label="1 (yes)"
chem_smiles=C=CC(=O)Nc1cccc(Nc2nc(Nc3ccc(OCCSC(=S)NCc4cnccn4)cc3)ncc2F)c1 answer_label="1 (yes)"
chem_smiles=C=CC(=O)Nc1cccc(Nc2nc(Nc3ccc(NC(=O)CCSC(=S)NCc4cccnc4)cc3)ncc2F)c1 answer_label="1 (yes)"
chem_smiles=C=CC(=O)Nc1cccc(Nc2nc(Nc3ccc(OCCSC(=S)N4CCN(c5ccccc5)CC4)cc3)ncc2F)c1 answer_label="0 (no)"
chem_smiles=C=CC(=O)Nc1cccc(Nc2nc(Nc3ccc(OCCSC(=S)N4CCN(C(C)C)CC4)cc3)ncc2F)c1 answer_label="1 (yes)"

Data request: Does the reported IC50 of the following compound sit strictly below 60 nM? `C=CC(=O)Nc1cccc(Nc2nc(Nc3ccc(OCCSC(=S)NCc4ccccc4)cc3)ncc2F)c1`
Data returned: 1 (yes)

Data request: Does the reported IC50 of the following compound sit strictly below 60 nM? `C=CC(=O)Nc1cccc(Nc2nc(Nc3ccc(OCCSC(=S)N4CCN(C(C)=O)CC4)cc3)ncc2F)c1`
Data returned: 0 (no)

Data request: Does the reported IC50 of the following compound sit strictly below 60 nM? `C=CC(=O)Nc1cccc(Nc2nc(Nc3ccc(OCCSC(=S)N4CCCCC4)cc3)ncc2F)c1`
Data returned: 0 (no)

Data request: Does the reported IC50 of the following compound sit strictly below 60 nM? `C=CC(=O)Nc1cccc(Nc2nc(Nc3ccc(OCCSC(=S)NC4CCCCC4)cc3)ncc2F)c1`
Data returned: 0 (no)

Data request: Does the reported IC50 of the following compound sit strictly below 60 nM? `C=CC(=O)Nc1cccc(Nc2nc(Nc3ccc(OCCSC(=S)N(C)Cc4cccnc4)cc3)ncc2F)c1`
Data returned: 1 (yes)

====

For each entry below, report its IC50 value.
target: Tyrosine-protein kinase BTK (Homo sapiens, UniProt Q06187); test: Inhibition of human recombinant full length BTK expressed in baculovirus in Sf9 insect cells using Poly (4:1 Glu, Tyr) as substrate incubated for 1 hr by ADP-Glo assay
Sequence (Q06187 whole entry): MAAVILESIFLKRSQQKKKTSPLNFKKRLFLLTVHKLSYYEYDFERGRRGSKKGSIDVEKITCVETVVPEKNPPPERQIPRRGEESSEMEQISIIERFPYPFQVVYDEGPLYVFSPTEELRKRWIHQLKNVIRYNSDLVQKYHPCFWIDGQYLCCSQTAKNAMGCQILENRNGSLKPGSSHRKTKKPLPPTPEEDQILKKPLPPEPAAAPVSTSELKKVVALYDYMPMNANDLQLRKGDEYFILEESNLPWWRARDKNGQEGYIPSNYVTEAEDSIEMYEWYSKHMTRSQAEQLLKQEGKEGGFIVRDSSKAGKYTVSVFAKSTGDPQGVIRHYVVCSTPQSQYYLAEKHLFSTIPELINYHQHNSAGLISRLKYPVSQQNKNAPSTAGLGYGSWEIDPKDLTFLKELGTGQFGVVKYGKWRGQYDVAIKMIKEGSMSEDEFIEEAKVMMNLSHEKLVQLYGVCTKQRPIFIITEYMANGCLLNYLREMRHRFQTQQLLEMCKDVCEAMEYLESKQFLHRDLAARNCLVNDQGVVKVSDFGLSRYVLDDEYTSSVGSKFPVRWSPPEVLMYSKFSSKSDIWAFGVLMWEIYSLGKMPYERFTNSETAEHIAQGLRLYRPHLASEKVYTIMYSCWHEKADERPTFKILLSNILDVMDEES
Answers are plain numbers, in nM.

compound=C=CC(=O)Nc1cccc(Nc2nc(Nc3ccc(OCCCCSC(=S)N(C)C)cc3)ncc2F)c1 unit_of_measure=nM recorded_measurement=35.4
compound="C=CC(=O)Nc1cccc(Nc2nc(Nc3ccc(OCCSC(=S)N4CC(C)OC(C)C4)cc3)ncc2F)c1 (stereo not drawn)" unit_of_measure=nM recorded_measurement=27.1
compound=C=CC(=O)Nc1cccc(Nc2nc(Nc3ccc(OCCSC(=S)N4CCN(CCO)CC4)cc3)ncc2F)c1 unit_of_measure=nM recorded_measurement=68.3
compound=C=CC(=O)Nc1cccc(Nc2nc(Nc3ccc(OCCSC(=S)NCc4ccc(C#N)cc4)cc3)ncc2F)c1 unit_of_measure=nM recorded_measurement=8.58
compound=C=CC(=O)Nc1cccc(Nc2nc(Nc3ccc(OCCSC(=S)NC(C)C)cc3)ncc2F)c1 unit_of_measure=nM recorded_measurement=98.2
compound=C=CC(=O)Nc1cccc(Nc2nc(Nc3ccc(OCCSC(=S)N(C)C)cc3)ncc2F)c1 unit_of_measure=nM recorded_measurement=1.44
compound=C=CC(=O)Nc1cccc(Nc2nc(Nc3ccc(OCCSC(=S)N(CCCC)CCCC)cc3)ncc2F)c1 unit_of_measure=nM recorded_measurement=125
compound=C=CC(=O)Nc1cccc(Nc2nc(Nc3ccc(OCCSC(=S)NCc4ccc(OC)cc4)cc3)ncc2F)c1 unit_of_measure=nM recorded_measurement=5.68

# batch: return IC50 for each of the 4 compounds below
1. C=CC(=O)Nc1cccc(Nc2nc(Nc3ccc(OCCSC(=S)N(CC)CC)cc3)ncc2F)c1
2. C=CC(=O)Nc1cccc(Nc2nc(Nc3ccc(OCCCSC(=S)N4CCN(C(C)C)CC4)cc3)ncc2F)c1
3. C=CC(=O)Nc1cccc(Nc2nc(Nc3ccc(OCCSC(=S)NC4CC4)cc3)ncc2F)c1
4. C=CC(=O)Nc1cccc(Nc2nc(Nc3ccc(OCCSC(=S)NCc4ccncc4)cc3)ncc2F)c1

Data returned:
1. 23.3
2. 63.2
3. 2.5
4. 7.36
